Test system: Saccharomyces cerevisiae;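 note: PSI is a weighted mean of sequencing reads over stability bins, variants kept only with over 10 reads, mCherry proximal and sfGFP distal, peptide attached via GGGS linker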
Assay: protein stability index of tFT-peptide fusion (C-terminal peptide) (PSI (0-1 scale)); higher = more stable (slower turnover)
Settings: genetic background: wild type; temperature: 30 C
The entries below are paired with their reported protein stability index.
Keep it simple and answer with nothing but the number.

Solved cases below.
{"item-sequence": "AGGAASWPAFFP", "test-readout": "protein stability index", "experimental-result": 0.793}
{"item-sequence": "NFRHSVTTSEVN", "test-readout": "protein stability index", "experimental-result": 0.737}
{"item-sequence": "PTPPNSPRPPTP", "test-readout": "protein stability index", "experimental-result": 0.63}
{"item-sequence": "TKTNKALKTSKI", "test-readout": "protein stability index", "experimental-result": 0.699}
{"item-sequence": "LGCGVSLWVVPG", "test-readout": "protein stability index", "experimental-result": 0.712}

In plain terms, VVVFRWTCWLLV has a documented protein stability index of 0.0581

In plain terms, KTKKYIQKNKKR has a documented protein stability index of 0.773

Sure, the documented protein stability index for GKGRIWTGRKGC is 0.68

Sample CLNPCVRWDGHV ; protein stability index observed: 0.708
